Values compiled from PubChem BioAssay AID652067.

Tested on: DAF-12 nuclear receptor (Haemonchus contortus)
assay_method_text: hcDAF-12 driven luciferase reporter activation – cell-based, luminescence, HEK293, lit1-tk-luc reporter, primary screen (AID 652067);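 also: 100% = response to 3 µM Δ7-dafachronic acid high control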
condition_parameters: HEK293 hcDAF-12 lit1-tk-luc reporter, at 6.8 µM
The campaign covered roughly 370,000 compounds. About 5,400 (1.5%) were called active.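 The calls were made as follows: active = activation above the mean of all tested compounds plus 3 SD (cut at about 5.5% in these data); inactive = the rest.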 For the sample, actives were picked, then their nearest neighbours and some compounds at random.
Labels: true (1) for active, false (0) for inactive

compound	category_label
CCCCn1c(=O)c(C(=O)Nc2ccccc2Cl)c(O)c2ccccc21	true (1)
COc1ccc(C(=O)C2CN(C)CC2C(=O)c2ccc(OC)cc2)cc1 (configuration not stated)	true (1)
COc1ccc2c(c1)NP(=S)(c1ccccc1)N2 (configuration not stated)	true (1)
CCOc1ccc(C2SCC(=O)Nc3c2c(C)nn3C2CCOC(C)(C)C2)cc1 (configuration not stated)	false (0)
CN(c1ccccc1)c1ccc([N+](=O)[O-])c2nonc12	false (0)
CN(C)CC1CCCCC1OC(=O)c1ccc(Cl)c(Cl)c1 (configuration not stated)	false (0)
O=C(CCN1CCCCC1)NCC(=O)Nc1ccc(Br)cc1C(=O)c1ccccc1	false (0)
CN1CCN(/N=C/c2c[nH]c3ccccc23)CC1	false (0)
CNP1(NC)=Nc2nn(-c3ccccc3)c(N)c2C(c2ccccc2)=N1	false (0)
CCC/C(=N\O)c1c[nH]c2ccccc12	true (1)
CCCCCn1c(=O)c(C(=O)Nc2c(C)n(C)n(-c3ccccc3)c2=O)c(O)c2ccccc21	false (0)
COc1ccc(C(=O)CC2C(=O)N(C)C(=O)N(C)C2=O)cc1	false (0)
